- System name: UniProtKB P09382
- Sequence (P09382 whole entry): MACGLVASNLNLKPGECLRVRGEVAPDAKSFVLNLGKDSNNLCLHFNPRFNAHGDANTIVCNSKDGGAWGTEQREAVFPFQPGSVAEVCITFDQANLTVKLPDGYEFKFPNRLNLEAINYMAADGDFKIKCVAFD
- Experiment notes: Binding affinity to human galectin-1 by surface plasmon resonance method
Decide using Activity: a value greater than or equal to 10 a.u. is Fulfilled, a smaller one is Not fulfilled.

Check out these entries, answers already filled in.
[[record]]
compound = "OC[C@H]1O[C@@H](O[C@H]2C=C[C@@H](OCCCCCCCCCCCCS)O[C@@H]2CO)[C@H](O)[C@@H](O)[C@H]1O"
label_class = "Fulfilled"

[[record]]
compound = "OC[C@H]1O[C@@H](OCCCCCCCCCCCCS)[C@H](O)[C@@H](O)[C@H]1O"
label_class = "Not fulfilled"

[[record]]
compound = "CC(=O)N[C@H]1[C@@H](OCCCCCCCCCCCCS)O[C@H](CO)[C@@H](O[C@@H]2O[C@H](CO)[C@H](O)[C@H](O)[C@H]2O)[C@@H]1O"
label_class = "Not fulfilled"

[[record]]
compound = "OC[C@H]1O[C@@H](O[C@H]2[C@H](O)C[C@@H](OCCCCCCCCCCCCS)O[C@@H]2CO)[C@H](O)[C@@H](O)[C@H]1O"
label_class = "Fulfilled"


Q: Item OC[C@H]1OC(O[C@H]2[C@H](O)[C@@H](O)[C@H](OCCCCCCCCCCCCS)O[C@@H]2CO)[C@H](O)[C@@H](O)[C@H]1O (stereo not given in full) with Activity of 10 a.u. or above?
Ans: Not fulfilled
